# SYSTEM TESTED: Protein farnesyltransferase (Rattus norvegicus, UniProt Q02293+Q04631)
# METHOD NOTES: Inhibitory concentration against rat brain farnesyltransferase
pIC50: −log10 of the molar value.
ENDPOINT NAME: pIC50

Solved cases (3 shown):
COMPOUND | ENDPOINT NAME | OBS VALUE
C[C@H](NC(=O)[C@@H](Cc1c[nH]c2ccccc12)NC(=O)[C@@H](COCc1ccccc1)NC(=O)C(CCC(=O)O)NC(=O)[C@@H](Cc1c[nH]cn1)NC(=O)OCc1ccccc1)C(N)=O (stereo not given in full) | pIC50 | 7.74
C[C@H](NC(=O)[C@@H](Cc1c[nH]c2ccccc12)NC(=O)C(Cc1ccccc1)NC(=O)[C@@H](Cc1ccc(OCc2ccccc2)cc1)NC(=O)[C@@H](Cc1c[nH]cn1)NC(=O)OCc1ccccc1)C(N)=O (stereo not given in full) | pIC50 | 6.89
C[C@H](NC(=O)[C@@H](Cc1c[nH]c2ccccc12)NC(=O)[C@@H](COCc1ccccc1)NC(=O)[C@H](C)NC(=O)[C@@H](Cc1c[nH]cn1)NC(=O)OCc1ccccc1)C(N)=O | pIC50 | 6.00

I = C[C@H](NC(=O)[C@@H](Cc1c[nH]c2ccccc12)NC(=O)[C@@H](COCc1ccccc1)NC(=O)[C@H](CC(=O)O)NC(=O)[C@@H](Cc1c[nH]cn1)NC(=O)OCc1ccccc1)C(N)=O
II = CCNC(=O)[C@H](C)NC(=O)[C@@H](Cc1c[nH]c2ccccc12)NC(=O)[C@@H](COCc1ccccc1)NC(=O)[C@@H](Cc1ccc(OCc2ccccc2)cc1)NC(=O)[C@@H](Cc1c[nH]cn1)NC(=O)OCc1ccccc1
Given the two records I and II , choose the one whose pIC50 value is lower. # respond with the chosen item's label
II
(II: 6.77, I: 7.42)

* * *

# SYSTEM TESTED: Protein farnesyltransferase (Rattus norvegicus, UniProt Q02293+Q04631)
# METHOD NOTES: Inhibitory concentration against rat brain farnesyltransferase
ENDPOINT NAME: IC50 (µM)

COMPOUND | IC50 (µM)
CC(NC(=O)[C@@H](COCc1ccccc1)NC(=O)[C@@H](Cc1ccc(OCc2ccccc2)cc1)NC(=O)[C@@H](Cc1cnc[nH]1)NC(=O)OCc1ccccc1)C(=O)N[C@@H](C)C(N)=O (stereo partly drawn) | 0.25

1 = C[C@@H](NC(=O)[C@H](Cc1c[nH]c2ccccc12)NC(=O)[C@H](COCc1ccccc1)NC(=O)[C@H](Cc1ccc(OCc2ccccc2)cc1)NC(=O)[C@H](Cc1c[nH]cn1)NC(=O)OCc1ccccc1)C(N)=O (single isomer, unassigned)
2 = C[C@H](NC(=O)[C@@H](Cc1c[nH]c2ccccc12)NC(=O)[C@@H](COCc1ccccc1)NC(=O)[C@@H](Cc1ccc(OCc2ccccc2)cc1)NC(=O)[C@@H](Cc1cnc[nH]1)NC(=O)OC1CCC1)C(N)=O
Which numeric IC50 is bigger, that of 1 or that of 2 ? # respond with the chosen item's label
2
(2: 3.2 µM, 1: 0.02 µM)

* * *

# SYSTEM TESTED: Protein farnesyltransferase (Rattus norvegicus, UniProt Q02293+Q04631)
# METHOD NOTES: Inhibitory concentration against rat brain farnesyltransferase
pIC50: −log10 of the molar value.
ENDPOINT NAME: pIC50

Solved cases (6 shown):
MOLECULE | pIC50
C[C@H](NC(=O)[C@@H](Cc1c[nH]c2ccccc12)NC(=O)[C@@H](COCc1ccccc1)NC(=O)[C@@H](Cc1ccc(OCc2ccccc2)cc1)NC(=O)C(CS)NC(=O)OCc1ccccc1)C(N)=O (stereo not given in full) | 6.77
C[C@H](NC(=O)[C@@H](Cc1c[nH]c2ccccc12)NC(=O)[C@@H](COCc1ccccc1)NC(=O)[C@@H](Cc1ccc(OCc2ccccc2)cc1)NC(=O)C(Cc1c[nH]cn1)NC(=O)OCc1ccccc1)C(N)=O (stereo not given in full) | 7.09
COC(=O)[C@H](C)NC(=O)[C@@H](Cc1c[nH]c2ccccc12)NC(=O)[C@@H](COCc1ccccc1)NC(=O)[C@@H](Cc1ccc(OCc2ccccc2)cc1)NC(=O)[C@@H](Cc1cnc[nH]1)NC(=O)OCc1ccccc1 | 7.32
C[C@H](NC(=O)[C@@H](Cc1c[nH]c2ccccc12)NC(=O)[C@@H](CSCc1ccccc1)NC(=O)[C@@H](Cc1ccc(OCc2ccccc2)cc1)NC(=O)[C@@H](Cc1cnc[nH]1)NC(=O)OCc1ccccc1)C(N)=O | 7.82
C[C@H](NC(=O)[C@@H](Cc1c[nH]c2ccccc12)NC(=O)[C@@H](COCc1ccccc1)NC(=O)C(CCC(N)=O)NC(=O)[C@@H](Cc1cnc[nH]1)NC(=O)OCc1ccccc1)C(N)=O (stereo not given in full) | 7.27
C[C@H](NC(=O)[C@@H](Cc1c[nH]c2ccccc12)NC(=O)[C@@H](COCc1ccccc1)NC(=O)C(CCCCN)NC(=O)[C@@H](Cc1cnc[nH]1)NC(=O)OCc1ccccc1)C(N)=O (stereo not given in full) | 5.72

I = C[C@H](NC(=O)[C@@H](Cc1c[nH]c2ccccc12)NC(=O)[C@@H](COCc1ccccc1)NC(=O)[C@@H](Cc1ccc(OCc2ccccc2)cc1)NC(=O)[C@H](Cc1cnc[nH]1)NC(=O)OCc1ccccc1)C(N)=O
II = C[C@@H](NC(=O)[C@H](Cc1c[nH]c2ccccc12)NC(=O)[C@H](COCc1ccccc1)NC(=O)[C@@H](Cc1ccccc1)NC(=O)[C@H](Cc1cnc[nH]1)NC(=O)OCc1ccccc1)C(N)=O (stereo in doubt)
Given the two records I and II , choose the one whose pIC50 value is lower. # respond with the chosen item's label
II

I = C[C@H](NC(=O)[C@@H](Cc1c[nH]c2ccccc12)NC(=O)[C@@H](COCc1ccccc1)NC(=O)[C@@H](Cc1ccc(OCc2ccccc2)cc1)NC(=O)[C@@H](Cc1c[nH]cn1)NC(=O)OCc1ccccc1)C(=O)O
II = C[C@H](NC(=O)[C@@H](Cc1c[nH]c2ccccc12)NC(=O)[C@@H](CS)NC(=O)[C@@H](Cc1ccc(OCc2ccccc2)cc1)NC(=O)[C@@H](Cc1cnc[nH]1)NC(=O)OCc1ccccc1)C(N)=O
Which numeric pIC50 is bigger, that of I or that of II ? # respond with the chosen item's label
II

src = ChEMBL document CHEMBL1130162
